These entries and their values trace back to ChEMBL document CHEMBL5291721.

AC50, D(3) dopamine receptor (Homo sapiens, UniProt P35462), per-entry values.

The value of AC50 measured for the molecule "CN1C(=O)OC(C)(C)C1=O" turned out to be > 30 µM

# AC50 of COc1ccccc1N1CCN(CC(O)COc2cccc3ccccc23)CC1 (stereo not given) = 0.42 µM

The value of AC50 measured for the molecule CCCN(CCC)C(=O)C(CCC(=O)O)NC(=O)c1ccccc1 (stereo not given) [PROGLUMIDE] turned out to be > 30 µM

Entry "C#C[C@]1(O)CC[C@H]2[C@@H]3[C@H](C)CC4=C(CCC(=O)C4)[C@H]3CC[C@@]21C" ; AC50 = > 30 µM

Recorded AC50 (molecule CCC(C(=O)O)c1ccc(N2Cc3ccccc3C2=O)cc1 (stereo not given) ): > 30 µM

---

target: 5-hydroxytryptamine receptor 2A (Homo sapiens, UniProt P28223); format: functional, cell-based; also: assay procedure not described here
Sequence (P28223 whole entry): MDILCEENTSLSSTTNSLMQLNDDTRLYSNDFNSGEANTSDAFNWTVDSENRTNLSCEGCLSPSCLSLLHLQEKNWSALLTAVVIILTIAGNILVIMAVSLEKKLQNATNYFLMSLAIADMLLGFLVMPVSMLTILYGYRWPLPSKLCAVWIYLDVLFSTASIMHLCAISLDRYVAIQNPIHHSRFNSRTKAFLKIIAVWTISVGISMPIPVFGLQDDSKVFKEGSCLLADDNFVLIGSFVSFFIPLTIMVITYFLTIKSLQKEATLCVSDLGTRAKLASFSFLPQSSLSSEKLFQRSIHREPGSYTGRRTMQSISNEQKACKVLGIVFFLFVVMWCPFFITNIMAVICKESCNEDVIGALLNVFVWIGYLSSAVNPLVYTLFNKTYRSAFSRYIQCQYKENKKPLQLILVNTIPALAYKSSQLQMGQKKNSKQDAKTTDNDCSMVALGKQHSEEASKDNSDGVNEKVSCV
Test readout: AC50

GET /value?item= C#C[C@]1(O)CC[C@H]2[C@@H]3CCc4cc(OC5CCCC5)ccc4[C@H]3CC[C@@]21C [QUINESTROL] &field=AC50 returns > 10 µM

Input "CCCCN1C[C@H](O)[C@@H](O)[C@H](O)[C@H]1CO" . Output AC50: > 30 µM

Please fill in: AC50 reported for "CCOC(=O)[C@H](CCc1ccccc1)N[C@@H](C)C(=O)N1C(=O)N(C)C[C@H]1C(=O)O" = > 30 µM

Lab note: CC(=O)OCC(=O)[C@@]12N=C(C)O[C@@H]1C[C@H]1[C@@H]3CCC4=CC(=O)C=C[C@]4(C)[C@H]3[C@@H](O)C[C@@]12C [DEFLAZACORT] gave AC50 of > 30 µM

The reported AC50 of the compound CC(C[N+](C)(C)C)OC(N)=O (stereo not drawn) [BETHANECHOL] was > 10 µM

compound COc1ccccc1N1CCN(CC(O)COc2cccc3ccccc23)CC1 (stereo not drawn) [NAFTOPIDIL] , AC50 observed: 9.2 µM

// recorded AC50 for "COc1ccc(-c2ccc3cc(C(=O)O)ccc3c2)cc1C12CC3CC(CC(C3)C1)C2" : > 30 µM

The reported value for CC1(C)O[C@@H]2C[C@H]3[C@@H]4CCC5=CC(=O)C=C[C@]5(C)[C@H]4[C@@H](O)C[C@]3(C)[C@]2(C(=O)CO)O1 [DESONIDE] in terms of AC50 is > 10 µM

---

I'd appreciate it if you could supply AC50 values for the items below.

Known value: Vasopressin V1a receptor (Homo sapiens, UniProt P37288) AC50 of the molecule "O=C(O[C@H]1C[C@H]2CC[C@@H](C1)[N+]21CCCC1)C(O)(c1ccccc1)c1ccccc1" equals > 30 µM

"Clc1ccc(CCCOCCCN2CCCCC2)cc1" on Vasopressin V1a receptor (Homo sapiens, UniProt P37288) gives AC50 = > 30 µM

Assay Vasopressin V1a receptor (Homo sapiens, UniProt P37288), sample CC1(C)O[C@@H]2C[C@H]3[C@@H]4CCC5=CC(=O)C=C[C@]5(C)[C@H]4[C@@H](O)C[C@]3(C)[C@]2(C(=O)CO)O1 [DESONIDE] , AC50 read: > 10 µM

Field AC50 (Vasopressin V1a receptor (Homo sapiens, UniProt P37288)), entry COC(=O)C1=C(C)NC(C)=C(C(=O)OC(C)(C)CN(C)CCC(c2ccccc2)c2ccccc2)C1c1cccc([N+](=O)[O-])c1 (centres undefined) : > 30 µM

Here O=C(OCC(O)CO)c1ccccc1Nc1ccnc2cc(Cl)ccc12 (centres undefined) was tested on Vasopressin V1a receptor (Homo sapiens, UniProt P37288), and its AC50 came to > 30 µM

# lookup: "C[C@H]1CNCCc2ccc(Cl)cc21" on Vasopressin V1a receptor (Homo sapiens, UniProt P37288), AC50 = > 30 µM

Test item "Cc1nnc2n1-c1ccc(Cl)cc1C(c1ccccc1Cl)=NC2" ; Vasopressin V1a receptor (Homo sapiens, UniProt P37288); reported AC50 was > 30 µM

Reported Vasopressin V1a receptor (Homo sapiens, UniProt P37288) AC50 for item C/C(O)=C(\C#N)C(=O)Nc1ccc(C(F)(F)F)cc1 [TERIFLUNOMIDE] was > 30 µM

The molecule "COc1cc2nc(N3CCN(C(=O)c4ccco4)CC3)nc(N)c2cc1OC" , tested on Vasopressin V1a receptor (Homo sapiens, UniProt P37288), showed AC50 of > 10 µM

Value sought: AC50, system Vasopressin V1a receptor (Homo sapiens, UniProt P37288), item O=C(NCCNCC(O)COc1ccc(O)cc1)N1CCOCC1 (centres undefined) . Result: > 30 µM

Hey, Vasopressin V1a receptor (Homo sapiens, UniProt P37288) data for "CC(C)(C)C(=O)Oc1ccc(S(=O)(=O)Nc2ccccc2C(=O)NCC(=O)O)cc1" : AC50 came out at > 30 µM

Hey, Vasopressin V1a receptor (Homo sapiens, UniProt P37288) data for "COc1ccc(-c2ccc3cc(C(=O)O)ccc3c2)cc1C12CC3CC(CC(C3)C1)C2" : AC50 came out at > 30 µM

// assay Vasopressin V1a receptor (Homo sapiens, UniProt P37288), entry "CCCCCNC(=N)N/N=C/c1c[nH]c2ccc(OC)cc12" , AC50 value = 21.3 µM

Case CCCN(CCC)C(=O)C(CCC(=O)O)NC(=O)c1ccccc1 (centres undefined) [PROGLUMIDE] , Vasopressin V1a receptor (Homo sapiens, UniProt P37288), AC50 recorded as > 30 µM

Hey, Vasopressin V1a receptor (Homo sapiens, UniProt P37288) data for "CC[C@@H]1C(=O)OC[C@@H]1Cc1cncn1C" : AC50 came out at > 30 µM

Observed AC50, Vasopressin V1a receptor (Homo sapiens, UniProt P37288), CCCN1C[C@H](CSC)C[C@@H]2c3cccc4[nH]cc(c34)C[C@H]21 [PERGOLIDE] : > 30 µM

Vasopressin V1a receptor (Homo sapiens, UniProt P37288) AC50 of CC(Oc1c(Cl)cccc1Cl)C1=NCCN1 (centres undefined) is > 30 µM

Value (AC50, Vasopressin V1a receptor (Homo sapiens, UniProt P37288)) for record "Cc1cn([C@H]2C=C[C@@H](CO)O2)c(=O)[nH]c1=O" = > 10 µM

Form: item "COc1ccc2c3c1O[C@H]1[C@@H](O)C=C[C@H]4[C@@H](C2)N(C)CC[C@@]341" ; test system Vasopressin V1a receptor (Homo sapiens, UniProt P37288); AC50: > 30 µM

---

Target: UniProtKB P04150
Sequence (P04150 whole entry): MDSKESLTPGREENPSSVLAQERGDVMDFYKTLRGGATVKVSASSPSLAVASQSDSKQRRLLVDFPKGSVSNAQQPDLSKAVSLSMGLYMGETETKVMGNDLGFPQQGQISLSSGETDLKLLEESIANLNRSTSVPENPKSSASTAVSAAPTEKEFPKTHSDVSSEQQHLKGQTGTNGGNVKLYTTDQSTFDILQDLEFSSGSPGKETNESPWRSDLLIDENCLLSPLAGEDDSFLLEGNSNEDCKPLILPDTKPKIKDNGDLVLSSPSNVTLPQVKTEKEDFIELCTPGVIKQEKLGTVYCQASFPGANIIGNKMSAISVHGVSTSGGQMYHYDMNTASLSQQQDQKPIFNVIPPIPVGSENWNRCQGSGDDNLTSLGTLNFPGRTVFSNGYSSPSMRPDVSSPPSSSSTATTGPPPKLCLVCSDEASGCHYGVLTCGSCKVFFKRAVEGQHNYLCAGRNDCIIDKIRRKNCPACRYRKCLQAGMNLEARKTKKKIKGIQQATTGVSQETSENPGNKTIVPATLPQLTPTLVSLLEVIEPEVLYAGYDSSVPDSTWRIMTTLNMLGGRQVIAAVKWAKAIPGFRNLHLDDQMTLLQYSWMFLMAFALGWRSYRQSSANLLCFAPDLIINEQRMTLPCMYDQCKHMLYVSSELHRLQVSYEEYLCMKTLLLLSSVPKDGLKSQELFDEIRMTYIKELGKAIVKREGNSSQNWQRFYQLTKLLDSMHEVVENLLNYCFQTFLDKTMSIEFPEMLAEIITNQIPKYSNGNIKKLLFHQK
Test readout: AC50

// recorded AC50 for "CC=CC(=O)N(CC)c1ccccc1C" : > 10 µM

AC50 in this record for "CN(C)CCC=C1c2ccccc2C=Cc2ccccc21" : > 30 µM

The measured AC50 associated with "CN(C)/N=N/c1[nH]cnc1C(N)=O" reads > 10 µM

Record COc1ccc(CCN(C)CCCC(C#N)(c2cc(OC)c(OC)c(OC)c2)C(C)C)cc1OC (configuration not stated) . Reported AC50: > 30 µM

Kindly note the recorded AC50 for COc1ccc(C(=O)Nc2ccccc2CCC2CCCCN2C)cc1 (configuration not stated) [ENCAINIDE] , which is > 30 µM

Recorded result, "NCC[C@H](O)C(=O)N[C@@H]1C[C@H](N)[C@@H](O[C@H]2O[C@H](CN)[C@@H](O)[C@H](O)[C@H]2O)[C@H](O)[C@H]1O[C@H]1O[C@H](CO)[C@@H](O)[C@H](N)[C@H]1O" , AC50: > 10 µM

Briefly, AC50 measured for "COc1cc2c(N)nc(N3CCN(C(=O)OCC(C)(C)O)CC3)nc2c(OC)c1OC" : > 30 µM

Recorded result, "CCOC(=O)[N-]c1cn(N2CCOCC2)n[o+]1" , AC50: > 30 µM

Data point: NC(=O)OCC(COC(N)=O)c1ccccc1 [FELBAMATE] ; AC50 = > 10 µM

// field: AC50; key: "CC[C@H]1CN2CCc3cc(OC)c(OC)cc3[C@@H]2C[C@@H]1C[C@H]1NCCc2cc(OC)c(OC)cc21" ; value = > 30 µM

// AC50 lookup, compound = "CC(=O)OCC(=O)[C@@]12N=C(C)O[C@@H]1C[C@H]1[C@@H]3CCC4=CC(=O)C=C[C@]4(C)[C@H]3[C@@H](O)C[C@@]12C" , result: 0.66 µM

Per the record, "O=C(O)/C=C/c1ccc(Cn2ccnc2)cc1" has AC50 of > 30 µM

Query "C[C@@H](O)[C@H]1C(=O)N2C(C(=O)O)=C(S[C@@H]3CN[C@H](C(=O)N(C)C)C3)[C@H](C)[C@H]12" yields AC50 of > 10 µM

Entry "COC(=O)[C@H]1[C@H]2C[C@@H]3c4[nH]c5cc(OC)ccc5c4CCN3C[C@H]2C[C@@H](OC(=O)/C=C/c2cc(OC)c(OC)c(OC)c2)[C@@H]1OC" , AC50 reported as > 10 µM

Form: compound = COc1cccc(C2(O)CCCCC2CN(C)C)c1 (configuration not stated) ; AC50 = > 30 µM

For reference, reported AC50 for Fc1ccc(C(c2ccccc2)(c2ccccc2F)n2ccnc2)cc1 (configuration not stated) stands at > 30 µM

AC50 for "COc1ccc2c3c1O[C@H]1C(=O)CC[C@@]4(O)[C@@H](C2)N(C)CC[C@]314" is > 30 µM
